# Test system: H2122
# protocol notes: Cell viability dose-response, H2122
# Format: cell-based, human
# condition parameters: text b138; read-out: IC50 towards H2122 cells
measured property: IC50 (nM)
Report the figure in nM without appending any unit label.

Looking up C#CCOc1ccc(C(=O)c2ccc(NC(=O)C(=O)NCCc3ccc(OC)cc3)cc2)cc1 , I see its IC50 listed as 30

====

# System: HCC44
# protocol notes: Cell viability dose-response, HCC44
# Type: cell-based, human
# condition parameters: Homo sapiens, HCC44, 12-point dose-response starting at 50 micromolar, 3-fold increments, in duplicate; read-out: toxicity data, HCC44
# Experimental: FIG. 6A. […] Cell viability is plotted vs. compound concentration. Compound was added to cells plated at 15% confluence in 96-well plates in RPMI-1640 media supplemented with 5% Fetal Bovine Serum and 2 mM L-Glutamine. After 4 days of incubation, ATP levels were measured using Cell Titer Glo (Promega). […] Selectivity may be measured by the half maximal inhibitory concentration (IC50), which, as used herein, is a measure of the effectiveness of a compound in killing cells. […]
I'd appreciate it if you could supply pIC50 values for the items below.
Keep it numeric: pIC50 is minus log10 of the concentration in mol/L.

Looking up COc1ccc(CCNC(=O)C(=O)Nc2cccc(Cl)c2)cc1 , I see its pIC50 listed as 4.47

Looking up COc1ccc(CCNC(=O)NC(=O)c2ccc(C(O)c3ccccc3)cc2)cc1 (centres unmarked) , I see its pIC50 listed as 7.08

Looking up Cc1ccccc1C(=O)c1ccc(C(=O)NC(=O)NCCc2ccc(O)cc2)cc1 , I see its pIC50 listed as 6.06

Looking up O=C(NCCc1ccc(O)cc1)NC(=O)c1ccc(COc2ccccc2)cc1 , I see its pIC50 listed as 8.00

Looking up COc1ccc(CCNC(=O)NC(=O)c2ccc(C(Cl)c3ccccc3)cc2)cc1 (centres unmarked) , I see its pIC50 listed as 7.52

Looking up O=C(NCCc1ccc(O)cc1)NC(=O)c1ccc(Oc2ccccc2)cc1 , I see its pIC50 listed as 7.70

Looking up COc1ccc(CCNC(=O)NC(=O)c2ccc(-c3ccc(OC)cc3)cc2)cc1 , I see its pIC50 listed as 6.60

Looking up Cc1cccc(C(=O)c2ccc(C(=O)NC(=O)NCCc3ccc(O)cc3)cc2)c1 , I see its pIC50 listed as 5.82

Looking up COc1ccc(CCNC(=O)NC(=O)c2ccc(C(=O)c3ccccc3)cc2)cc1 , I see its pIC50 listed as 6.62

Looking up COc1cccc(C(=O)c2ccc(C(=O)NC(=O)NCCc3ccc(O)cc3)cc2)c1 , I see its pIC50 listed as 6.34

Looking up COc1ccc(CCNC(=O)NC(=O)c2ccc(C(N)c3ccccc3)cc2)cc1 (centres unmarked) , I see its pIC50 listed as 7.22

Looking up COc1ccc(CCNC(=O)NC(=O)c2ccc(COc3ccccc3)cc2)cc1 , I see its pIC50 listed as 8.10

Looking up O=C(NCCc1ccc(O)cc1)NC(=O)c1ccc(C(=O)c2ccccc2)cc1 , I see its pIC50 listed as 7.14

Looking up COc1ccc(CCNC(=O)N(C)C(=O)c2ccc(C(=O)c3ccccc3)cc2)cc1 , I see its pIC50 listed as 5.11

====

# Tested on: H1395
# protocol notes: Cell viability dose-response, H1395
# Format: cell-based
# condition parameters: Homo sapiens, NCI-H1395; Tables 3 and 4; read-out: IC50 (uM) vs indicated non-small cell lung cancer cell line H1395
# Procedure: FIG. 6A. […] Cell viability is plotted vs. compound concentration. Compound was added to cells plated at 15% confluence in 96-well plates in RPMI-1640 media supplemented with 5% Fetal Bovine Serum and 2 mM L-Glutamine. After 4 days of incubation, ATP levels were measured using Cell Titer Glo (Promega). […] Selectivity may be measured by the half maximal inhibitory concentration (IC50), which, as used herein, is a measure of the effectiveness of a compound in killing cells. […]
# note: boundary value 40 µM maps to 0.0; IC50 below it maps to 1.0

Problem: For the molecule COc1ccc(C(=O)c2ccc(NC(=O)c3sc4ccccc4c3Cl)cc2)cc1 , is IC50 under 40 µM?
1.0

Problem: For the molecule O=C(Nc1nc2ccccc2s1)c1cccnc1 , is IC50 under 40 µM?
0.0

Problem: For the molecule O=C(Nc1nnc(C2CCCCC2)s1)c1sc2ccccc2c1Cl , is IC50 under 40 µM?
0.0

Problem: For the molecule O=C(Nc1nc2ccccc2s1)c1ccc(-c2ccccc2)cc1 , is IC50 under 40 µM?
0.0

Problem: For the molecule O=C(Nc1nc2c(s1)CCCC2)c1ccccc1Oc1ccccc1 , is IC50 under 40 µM?
0.0

Problem: For the molecule COc1ccc2nc(NC(=O)c3ccc(C(=O)c4ccccc4)cc3)sc2c1 , is IC50 under 40 µM?
1.0

Problem: For the molecule COc1ccc2nc(NC(=O)c3ccc(OCc4ccccc4)cc3)sc2c1 , is IC50 under 40 µM?
1.0

Problem: For the molecule NC(=O)c1c(NC(=O)c2sc3ccccc3c2Cl)sc2c1CCCCC2 , is IC50 under 40 µM?
1.0

Problem: For the molecule O=C(Nc1nc2c(s1)CCCC2)c1ccc(Cc2ccccc2)cc1 , is IC50 under 40 µM?
1.0

Problem: For the molecule Cc1cc(C)nc(SCC(=O)Nc2nc3ccccc3s2)n1 , is IC50 under 40 µM?
0.0

Problem: For the molecule NC(=O)c1c(NC(=O)c2ccc(Br)o2)sc2c1CCCC2 , is IC50 under 40 µM?
0.0

Problem: For the molecule O=C(Nc1nc2ccccc2s1)c1ccc([N+](=O)[O-])cc1 , is IC50 under 40 µM?
0.0

Problem: For the molecule O=C(Nc1cccc(NC(=O)c2sc3ccccc3c2Cl)c1)c1cccc(Cl)c1 , is IC50 under 40 µM?
1.0

Problem: For the molecule O=C(c1ccccc1)c1ccc(NC(=O)c2sc3ccccc3c2Cl)cc1 , is IC50 under 40 µM?
0.0

Problem: For the molecule O=C(Nc1ccc(F)c(Cl)c1)c1sc2ccccc2c1Cl , is IC50 under 40 µM?
0.0

Problem: For the molecule COc1ccc2nc(NC(=O)c3ccc(N)cc3)sc2c1 , is IC50 under 40 µM?
1.0

====

# System: HCC44
# protocol notes: Cell viability dose-response, HCC44
# Type: cell-based, human
# condition parameters: Tables 3 and 4; read-out: IC50 (uM) vs indicated non-small cell lung cancer cell line HCC44
I'd appreciate it if you could supply IC50 values for the items below.
Could you kindly put the unit after your number?

Looking up O=C(Nc1cccc(NC(=O)c2sc3ccccc3c2Cl)c1)c1cccc(Cl)c1 [SW023441-2] , I see its IC50 listed as 27.7 µM

Looking up COc1ccccc1NC(=O)c1sc2ccccc2c1Cl [SW004989] , I see its IC50 listed as 38.7 µM

====

# Test system: H2122
# protocol notes: Cell viability dose-response, H2122
# Format: cell-based, human
# condition parameters: Homo sapiens, NCI-H2122, Tables 3 and 4; read-out: IC50 (uM) vs indicated non-small cell lung cancer cell line H2122
I'd appreciate it if you could supply IC50 values for the items below.
Report the figure in µM without appending any unit label.

Looking up C#CCOc1ccc(C(=O)c2ccc(C(=O)Nc3nc4ccc(OC)cc4s3)cc2)cc1 , I see its IC50 listed as 0.131

Looking up COc1ccc(Nc2ccc(C(=O)Nc3nc4ccc(OC)cc4s3)cc2)cc1 , I see its IC50 listed as 0.314

Looking up COc1ccc2nc(NC(=O)c3ccccc3)sc2c1 , I see its IC50 listed as 0.538

Looking up C#CCOc1ccc2nc(NC(=O)c3ccc(C(=O)c4ccc(OC)cc4)cc3)sc2c1 , I see its IC50 listed as 0.288

Looking up O=C(Nc1nc2ccc(F)cc2s1)c1sc2ccccc2c1Cl , I see its IC50 listed as 3.3

Looking up Nc1ccc2sc(NC(=O)c3ccccc3)nc2c1 , I see its IC50 listed as 8.13

Looking up Cc1ccc(NC(=O)c2sc3ccccc3c2Cl)c(F)c1 , I see its IC50 listed as 1.36

Looking up COc1ccc2nc(NC(=O)c3ccc([C@H](N)c4ccccc4)cc3)sc2c1 , I see its IC50 listed as 0.012

Looking up O=C(Nc1nc2c(s1)CCC2)c1ccc(C(=O)c2ccccc2)cc1 , I see its IC50 listed as 0.26

====

# Test system: H2122
# protocol notes: Cell viability dose-response, H2122
# Format: cell-based, human
# condition parameters: Homo sapiens, NCI-H2122, Table 8; 12-point dose-response starting at 50 micromolar
# note: boundary value 400 nM maps to no (0); AC50 below it maps to yes (1)

Problem: For the compound c1ccc(-n2cc(COc3ccc4cc(OCc5cnn(-c6ccccc6)c5)ccc4c3)cn2)cc1 , is AC50 under 400 nM?
no (0)

Problem: For the compound O=c1c(Oc2ccccc2F)coc2cc(OCc3cnn(-c4ccc(Cl)cc4)c3)ccc12 , is AC50 under 400 nM?
no (0)

Problem: For the compound O=c1c(Cc2nccs2)coc2cc(OCc3cnn(-c4ccccc4)c3)ccc12 , is AC50 under 400 nM?
yes (1)

Problem: For the compound O=c1c(Cc2cccc(O)c2)coc2cc(OCc3cnn(-c4ccccc4)c3)ccc12 , is AC50 under 400 nM?
no (0)

Problem: For the compound O=c1c(Cc2cccnc2)coc2cc(OCc3cnn(-c4ccccc4)c3)ccc12 , is AC50 under 400 nM?
no (0)

Problem: For the compound Cc1ccccc1Oc1coc2cc(OCc3cnn(-c4ccccc4)c3)ccc2c1=O , is AC50 under 400 nM?
yes (1)

Problem: For the compound COc1ccc(Oc2coc3cc(OCc4cnn(-c5ccccc5)c4)ccc3c2=O)cc1 , is AC50 under 400 nM?
yes (1)

Problem: For the compound O=c1c(Oc2ccccc2F)coc2cc(OCc3cn(-c4ccccc4)nn3)ccc12 , is AC50 under 400 nM?
no (0)

Problem: For the compound O=c1c(Oc2ccccc2)coc2cc(OCc3cnn(-c4ccccc4)c3)ccc12 , is AC50 under 400 nM?
yes (1)

Problem: For the compound O=c1c(-c2ccc3ccccc3c2)coc2cc(OCc3cnn(-c4ccccc4)c3)ccc12 , is AC50 under 400 nM?
no (0)

Problem: For the compound O=c1c(C#Cc2ccccc2)coc2cc(OCc3cnn(-c4ccccc4)c3)ccc12 , is AC50 under 400 nM?
no (0)

Problem: For the compound O=c1c(-c2ccc(F)c(F)c2)coc2cc(OCc3cnn(-c4ccccc4)c3)ccc12 , is AC50 under 400 nM?
yes (1)

Problem: For the compound O=c1c(Cc2ccccn2)coc2cc(OCc3cnn(-c4ccccc4)c3)ccc12 , is AC50 under 400 nM?
yes (1)

Problem: For the compound Cc1ccccc1/C=C1\COc2cc(OCc3cnn(-c4ccccc4)c3)ccc2C1=O , is AC50 under 400 nM?
no (0)

Problem: For the compound O=C1/C(=C/c2c[nH]cn2)COc2cc(OCc3cnn(-c4ccccc4)c3)ccc21 , is AC50 under 400 nM?
no (0)

Problem: For the compound COc1cccc(-c2coc3cc(OCc4cnn(-c5ccccc5)c4)ccc3c2=O)c1 , is AC50 under 400 nM?
no (0)

The origin of these recorded values is patent US9789096B2.
